- System: mitochondrial membrane potential
- Type: cell-based, mouse
- condition.parameters: composite Z-score vs mock-treated (DMSO) wells; Conc 20 μM
assay.endpoint: ΔΨm
API note: the answer field is a bare number with no unit suffix.

molecule | ΔΨm
CC(=O)O[C@@H]1CC[C@@]2(C)C(C[C@@H](OC(C)=O)[C@@]3(C)C4=CC(=O)O[C@@H](c5ccoc5)[C@]4(C)CCC23)C1(C)C (stereo partly drawn) [3alpha-acetoxydihydrodeoxygedunin] | 1.157

ΔΨm recorded for this molecule, Cc1ccc2c(c1)CC[C@H]1CC(=O)CC[C@]21C , is −0.470

ΔΨm recorded for this molecule, COC(=O)[C@H](O)[C@H]1C(C)(C)[C@H](OC(C)=O)[C@@H]2CC3=C4CC(=O)O[C@@H](c5ccoc5)[C@]4(C)CC[C@@H]3[C@@]1(C)C2=O [swietenolide-3-acetate] , is 1.006

====

- Tested on: mitochondrial membrane potential
- Assay type: cell-based, mouse
- condition.parameters: composite Z-score vs DMSO; Conc 20 μM
Label scheme for ΔΨm: lower than -0.4 is not satisfied, -0.4 and above is satisfied.

molecule | group
Oc1ccc([C@H]2Oc3cc(O)cc(O)c3C[C@H]2O)cc1 [(2R,3R)-(−)-epiafzelechin] | not satisfied

Task: Test whether the molecule C#CCCCCCCCCCCCC(O)CC(O)CO (centres unmarked) [avocadyne] records ΔΨm of -0.4 or higher.
Result: satisfied

Task: Test whether the molecule CC(CN(C)C)CN1c2ccccc2Sc2ccccc21 (centres unmarked) [trimeprazine] records ΔΨm of -0.4 or higher.
Result: satisfied

Task: Test whether the molecule NCCc1ccc(S(=O)(=O)F)cc1 [4-aminoethylbenzenesulfonyl fluoride] records ΔΨm of -0.4 or higher.
Result: satisfied

Task: Test whether the molecule O=c1[nH]c2ccccc2n1C1CCN(CCCC(c2ccc(F)cc2)c2ccc(F)cc2)CC1 [pimozide] records ΔΨm of -0.4 or higher.
Result: satisfied

====

Catalogue of molecules with associated MTT
- Tested on: cellular dehydrogenase activity
- condition.parameters: composite Z-score vs DMSO; Conc 20 μM

Worked cases, MTT given:
molecule | MTT
CC[C@@H](C)C(=O)O[C@H]1[C@H](O)[C@H]2[C@@H](CN3C[C@@H](C)CC[C@H]3[C@@]2(C)O)[C@@H]2C[C@]34O[C@]5(O)[C@@H](OC(=O)[C@@](C)(O)CC)CC[C@@]3(C)[C@@H]5[C@@H](OC(C)=O)[C@@H](OC(C)=O)[C@H]4[C@@]21O | −0.100
COc1cc(OC)c2c(=O)c(-c3ccccc3)c(C)oc2c1OC | −0.531
Cc1onc(-c2ccccc2)c1C(=O)N[C@@H]1C(=O)N2[C@@H]1SC(C)(C)[C@@H]2C(=O)[O-].[Na+] [oxacillin sodium] | −1.064
COc1cc2c(cc1OC)[C@@H]1C(=O)c3c(O)cc4c(c3O[C@@H]1CO2)C=CC(C)(C)O4 [alpha-toxicarol, reference compound] | −1.982
NNC(=O)c1ccncc1.Nc1ccc(C(=O)O)c(O)c1 | −0.807
CC(C)CCC[C@@H](C)[C@H]1CC[C@H]2[C@@H]3CCC4CCCC[C@]4(C)[C@H]3CC[C@]12C (stereo partly drawn) | −1.057
CO/N=C(\C(=O)N[C@@H]1C(=O)N2C(C(=O)OCOC(=O)C(C)(C)C)=C(/C=C\c3scnc3C)CS[C@H]12)c1csc(N)n1 | −0.718
O=C(O)c1cccc(O)c1O | −1.800

MTT recorded for this molecule, CCCCCC(=O)Cc1cc(O)cc(O)c1C(=O)Oc1cc(CC(=O)CCCCC)c(C(=O)O)c(OC)c1 , is −2.597

====

Catalogue of compounds with associated MTT
- Tested on: cellular dehydrogenase activity
- condition.parameters: composite Z-score vs DMSO wells; Conc 20 μM
API note: the answer field is a bare number with no unit suffix.

Worked cases, MTT given:
compound | MTT
CC(C)(Sc1cc(C(C)(C)C)c(O)c(C(C)(C)C)c1)Sc1cc(C(C)(C)C)c(O)c(C(C)(C)C)c1 | −1.114
CC(=O)N[C@@H](CC(=O)N[C@@H](CCC(=O)O)C(=O)O)C(=O)O | −0.779

API: the following record is the query input.
Considering CCOC(=O)CCCCCCCCCCCCC1C=CCC1 (stereo not drawn) , its MTT with cellular dehydrogenase activity was recorded as −0.612

====

- Tested on: cytochrome c
- Assay type: cell-based, mouse
- condition.parameters: 20 μM; composite Z-score vs DMSO
Catalogue of compounds with associated cyt c
API note: the answer field is a bare number with no unit suffix.

compound | cyt c
CC1COc2c(N3CCN(C)CC3)c(F)cc3c(=O)c(C(=O)O)cn1c23 (stereo not drawn) [ofloxacin] | 0.309
CC(C)C[C@H]1C(=O)N2CCC[C@H]2[C@]2(O)O[C@](NC(=O)[C@@H]3C=C4c5cccc6[nH]c(Br)c(c56)C[C@H]4N(C)C3)(C(C)C)C(=O)N12 [bromocriptine] | −0.064

cyt c recorded for this compound, CC[N+](C)(C)c1cccc(O)c1 [edrophonium] , is 1.045

cyt c recorded for this compound, ClC1=C(Cl)C2(Cl)C3C4CC(C5OC45)C3C1(Cl)C2(Cl)Cl (stereo not drawn) [endrin] , is 0.726

cyt c recorded for this compound, CC(=O)OCC[N+](C)(C)C [acetylcholine] , is −0.038

cyt c recorded for this compound, O=C(O)CCCc1ccc(N(CCCl)CCCl)cc1 [chlorambucil] , is −0.955

cyt c recorded for this compound, CN1Cc2c(N)cccc2C(c2ccccc2)C1 (stereo not drawn) [nomifensin] , is −1.233

cyt c recorded for this compound, C/C=C(/C(=C/C)c1ccc(O)cc1)c1ccc(O)cc1 [dienestrol] , is −0.653

cyt c recorded for this compound, CN(C)c1nc(N(C)C)nc(N(C)C)n1 [altretamine] , is −0.631

====

Catalogue of molecules with associated MTT (composite Z-score)
- Test system: cellular dehydrogenase activity
- condition.parameters: Conc 20 μM; normalized score vs mock-treated (DMSO) wells
API note: the answer field is a bare number with no unit suffix.

Worked cases, MTT (composite Z-score) given:
molecule | MTT (composite Z-score)
COC(=O)C[C@H]1C(C)(C)C(=O)[C@@H]2CC3=C(CC[C@]4(C)C3=CC(=O)O[C@H]4c3ccoc3)[C@@]1(C)C2=O | −1.272
CCCc1occc(=O)c1CCO [2-propyl-3-hydroxyethylenepyran-4-one] | −0.906

MTT (composite Z-score) recorded for this molecule, CCC[C@H]1CC2=C(C[C@@H](CC)CC3=C1C(=O)OC3=O)C(=O)OC2=O , is −0.488

====

Catalogue of molecules with associated ΔΨm
- System: mitochondrial membrane potential
- Assay type: cell-based, mouse
- condition.parameters: 20 μM; composite Z-score vs DMSO
API note: the answer field is a bare number with no unit suffix.

molecule | ΔΨm
C[N+](C)(C)CCOC(N)=O [carbachol] | −0.965
CCOC(=O)CCC(=O)O[C@H]1[C@H](O[C@@H]2[C@@H](C)[C@H](O[C@H]3C[C@@](C)(OC)[C@@H](O)[C@H](C)O3)[C@@H](C)C(=O)O[C@H](CC)[C@@](C)(O)[C@H](O)[C@@H](C)C(=O)[C@H](C)C[C@@]2(C)O)O[C@H](C)C[C@@H]1N(C)C [erythromycin ethylsuccinate] | −0.488

API: the following record is the query input.
Considering OC(c1cc(C(F)(F)F)nc2c(C(F)(F)F)cccc12)C1CCCCN1 (stereo not drawn) [mefloquine] , its ΔΨm with mitochondrial membrane potential was recorded as −0.505

====

- Test system: cytochrome c
- Type: cell-based, mouse
- condition.parameters: 20 μM; composite Z-score vs DMSO
Catalogue of compounds with associated cyt c
API note: the answer field is a bare number with no unit suffix.

compound | cyt c
Nc1ccc(/N=N/c2ccccc2)c(N)n1 [phenazopyridine] | 0.335

cyt c recorded for this compound, CCOC(=O)[C@H](CCc1ccccc1)N[C@@H](C)C(=O)N1Cc2ccccc2C[C@H]1C(=O)O [quinapril] , is 0.237

cyt c recorded for this compound, CC(=O)Oc1c(C)c(C)c2c(c1C)CCC(C)(CCCC(C)CCCC(C)CCCC(C)C)O2 (stereo not drawn) [alpha-tochopheryl acetate] , is 0.261

cyt c recorded for this compound, C=CCc1ccc(O)c(OC)c1 [eugenol] , is 0.307

cyt c recorded for this compound, Oc1c(Br)cc(Br)c2cccnc12 [broxyquinoline] , is 0.410

====

- System: cellular dehydrogenase activity
- condition.parameters: normalized composite Z-score vs mock-treated (DMSO) wells; Conc 20 μM
assay.endpoint: MTT
API note: the answer field is a bare number with no unit suffix.

Worked cases, MTT given:
compound | observed
Cc1cc(=O)c2c(O)c3c(cc2o1)OCC(C)CC3 (centres unmarked) [dihydroptaeroxylin] | −0.526
COc1ccc(-c2cc(=O)c3c(O)c(OC)c(O[C@@H]4O[C@H](CO[C@@H]5O[C@@H](C)[C@H](O)[C@@H](O)[C@H]5O)[C@@H](O)[C@H](O)[C@H]4O)cc3o2)cc1 | −0.475
Cc1occc(=O)c1/C=C/O [2-methyl-3-hydroxyethylenepyran-4-one] | −0.725
COC1CC(C)C2OC2CC(C)C2CC(C)(C)C12 (centres unmarked) | −0.794
CC1(C)C(=O)CC[C@@]2(C)C1C[C@@H](O)[C@@]1(C)C3=CC(=O)O[C@@H](c4ccoc4)[C@]3(C)CCC21 (some centres unmarked) [dihydro-7-desacetyldeoxygedunin] | −1.403

MTT recorded for this compound, CC1CCC23CCC4(C)C5(C)CCC6C(C)(C)C(=O)CCC6(C)C5CCC4(OC2=O)C3C1C (centres unmarked) [3-oxoursan (28-13)olide] , is −1.871

MTT recorded for this compound, CC12CCCC(O)(C1)C1CC(C)(C)C1CC2 (centres unmarked) , is −1.859

MTT recorded for this compound, COc1cccc2c1CCC1CC(=O)CCC21C (centres unmarked) , is −1.068
